Test system: 922993-354-T-J3-PDC complex spheroid viability
Assay: Anticancer human tumor 922993-354-T-J3-PDC patient-derived endometrial carcinoma cell line growth inhibition [POLQ]
Settings: second compound 0.1 µM; first compound 0.1 µM; active compounds read low
Method: Multicellular complex tumor spheroid response to Polymerase (POL) inhibitors (novobiocin, ART-558, RP6685) in combination with a variety of drugs and investigational agents in selected tumor cell lines The POL inhibitors (novobiocin, ART-558, and RP6685) were evaluated both individually and in combination with standard of care and investigational anticancer small molecules within a complex spheroid model of solid tumors. . […]
# reported viability, T/C; entries follow
assay readout: viability, T/C

{"compound": "CNCc1ccc(-c2[nH]c3cc(F)cc4c3c2CCNC4=O)cc1 + Cc1cccc(N(C)C(=O)C2C(O)CCN2c2nc(C)cc(C(F)(F)F)c2C#N)c1", "assay readout": "viability, T/C", "assay result": "101%"}
{"compound": "Nc1ccn(C2OC(CO)C(O)C2(F)F)c(=O)n1 (centres undefined) + Nc1ccc(C#CCN(C(=O)Cc2ncc(C(F)(F)F)cc2C(F)(F)F)c2ccc(F)cc2)nn1", "assay readout": "viability, T/C", "assay result": "25.5%"}
{"compound": "CCc1c2c(nc3ccc(O)cc13)-c1cc3c(c(=O)n1C2)COC(=O)[C@]3(O)CC + Cc1cccc(N(C)C(=O)C2C(O)CCN2c2nc(C)cc(C(F)(F)F)c2C#N)c1", "assay readout": "viability, T/C", "assay result": "11.3%"}
{"compound": "CC[C@@]1(O)C(=O)OCc2c1cc1n(c2=O)Cc2cc3c(CN(C)C)c(O)ccc3nc2-1 + COC1C(OC(N)=O)C(O)C(Oc2ccc3c(O)c(NC(=O)c4ccc(O)c(CC=C(C)C)c4)c(=O)oc3c2C)OC1(C)C", "assay readout": "viability, T/C", "assay result": "39.1%"}

----------
system: 922993-354-T-J3-PDC complex spheroid viability; test: Anticancer human tumor 922993-354-T-J3-PDC cell line growth inhibition [POLQ]; details: second compound 0.1 µM; first compound 10 µM; active = viability on the fitted dose curve at most 10% of control; inactive = the rest;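 also: spheroids exposed to the agents for one week; 100% = DMSO vehicle control wells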
Labels: active, inactive

{"compound": "Nc1ccn(C2OC(CO)C(O)C2(F)F)c(=O)n1 (stereo not given) + COC1C(OC(N)=O)C(O)C(Oc2ccc3c(O)c(NC(=O)c4ccc(O)c(CC=C(C)C)c4)c(=O)oc3c2C)OC1(C)C", "label": "active"}
{"compound": "COc1cc2cc(C(=O)CCC(=O)O)sc2cc1OC + Nc1ccc(C#CCN(C(=O)Cc2ncc(C(F)(F)F)cc2C(F)(F)F)c2ccc(F)cc2)nn1", "label": "inactive"}
{"compound": "CCc1cc2c(N3CCc4c(cc(Cn5ccnc5)cc4-c4cn(C)nc4C(F)(F)F)C3=O)ccnc2c(OC)n1 + Cc1cccc(N(C)C(=O)C2C(O)CCN2c2nc(C)cc(C(F)(F)F)c2C#N)c1", "label": "inactive"}
{"compound": "COc1ccc([C@@H](O)c2cc(-c3ncnc4cc(N5CCOCC5)ccc34)c(F)cc2Cl)nn1 + Nc1ccc(C#CCN(C(=O)Cc2ncc(C(F)(F)F)cc2C(F)(F)F)c2ccc(F)cc2)nn1", "label": "inactive"}
{"compound": "CC1COCCN1c1cc(-c2ccnn2C)c2ccnc(-c3ccn[nH]3)c2n1 (stereo not given) + COC1C(OC(N)=O)C(O)C(Oc2ccc3c(O)c(NC(=O)c4ccc(O)c(CC=C(C)C)c4)c(=O)oc3c2C)OC1(C)C", "label": "active"}
